These measurements were taken from PubChem BioAssay (NCI).

# System: SK-MEL-28 melanoma
# assay info: NCI tumour cell line growth inhibition, 48 h
measured quantity: TGI

>>> reported_result("Cc1cc(Cl)cc2c(N=Nc3ccccc3[N+](=O)[O-])c(O)[nH]c12")
"> 100 µM"
>>> reported_result("CC(=O)N1CN2C(=O)CCC2c2ccccc21 (stereo not given)")
"> 100 µM"
>>> reported_result("CCOC(O)(NC(=O)C(C(F)(F)F)C(F)(F)F)C(F)(F)F (stereo not given)")
"> 100 µM"
>>> reported_result("Cn1ccnc1C(=O)/C=C/c1ccc(C(=O)Nc2ccc(S(F)(F)(F)(F)F)cc2)cc1")
"> 14.3 µM"
>>> reported_result("CN(c1cc2ncc(=O)[nH]c2cc1NC(N)=NCc1ccc(Cl)cc1)C1CCCCC1")
"13.7 µM"

TGI reported for this molecule CN(C)c1nc(N(C)C)nc(N(C)CN(C)c2ccc(Cl)cc2)n1 : > 100 µM

Note to self: TGI recorded for Cn1c2c(c3ccccc31)CCN(CCN1CCN(c3ccccc3)CC1)C2=O was > 100 µM

Note to self: TGI recorded for n1onc2c1NC1Nc3nonc3NC1N2 (stereo not given) was > 100 µM

Entry C=C1[C@H](OC(=O)C(C)C)[C@]23CC4(O)[C@@H]5[C@@]6(C)CCC[C@]57C([C@@H]2C[C@@]1(O)[C@H](O)[C@@H]73)N4C6 ; TGI = > 100 µM

Per the record, CCOC(=O)c1c(-c2ccccc2)oc(-c2ccccc2)c1C(=O)OCC has TGI of > 100 µM

###

# Tested on: U251 CNS
Pick from active, inactive when you respond.

Ask: Recorded test outcome, item Nc1ncnc2c1ncn2Cc1ccc(C23CC4CC(CC(C4)C2)C3)c(OCc2cc(F)c(F)cc2F)c1
Reply: inactive

Ask: Hey, what did the test say about Cc1cc(NCCCNc2ccnc3cc(Cl)ccc23)nc(N2CCN(C)CC2)n1 ?
Reply: inactive

Ask: Please let me know the test result on file for CC/C(=C(/c1ccc(OCCN(C)C)cc1)c1ccc(OC(=O)CCC(=O)c2c(C)[nH]c(/C=C3\N=C(c4ccc[nH]4)C=C3OC)c2C)cc1)c1ccccc1 .
Reply: inactive

Ask: Hey, what did the test say about COc1cccc(C2C3=C(COC3=O)N(CCO)c3cc(OC)ccc32)c1 (centres undefined) ?
Reply: active

###

# System: LOX IMVI melanoma
# assay info: NCI tumour cell line growth inhibition, 48 h
measured quantity: GI50

Illustrative cases are given below, each with its answer.
>>> reported_result("C/C=C/C/C=C/CCC(=O)[C@H]1O[C@H]1C(N)=O")
"8.38 µM"
>>> reported_result("CC(=O)CCc1ccc(OC2OC(COC(=O)c3cc(O)c(O)c(O)c3)C(O)C(O)C2OC(=O)/C=C/c2ccccc2)cc1 (stereo not given)")
"17.1 µM"
>>> reported_result("CC[O-].CC[O-].O=C([CH-]C(=O)c1cccnc1)c1ccccc1.O=C([CH-]C(=O)c1cccnc1)c1ccccc1.[Ti+4]")
"> 100 µM"
>>> reported_result("CC(C)Nc1ccc(Nc2ccccc2)cc1")
"13.1 µM"

response.value for COc1ccc2c(c1)=C(C=C1C=CN(O)C=C1)C(=O)N=2 (field: GI50) = 23.9 µM

###

# Test system: SF-268 CNS
# assay info: NCI tumour cell line growth inhibition, 48 h
measured quantity: TGI (µM)
Respond numerically; units are µM and should not be typed.

>>> reported_result("c1ccc(C2CC(c3cccc(Nc4ccncc4)c3)=NN2c2ccccc2)cc1 (stereo not given)")
3.65

Consider the record given below.
Entry CC(=O)c1c(SCCN2CCCC2)n(-c2ccccc2)c(=S)n(-c2ccccc2)c1=O — recorded TGI = 33.2
